I'd appreciate it if you could supply pIC50 values for the items below.
- Tested on: MV4;11 cells
- measurementNotes: Cell viability assay (CellTiter-Glo) in MV4;11 cells
- Type: cell-based
- settings: Homo sapiens, MV4-11, 72 h, MV4;11 cells, compound alone, three days; read-out: MV4; 11 IC50
pIC50: −log10 of the molar value.

Solved cases below.
O=C1CCC(N2C(=O)c3ccc(NC[C@H]4C[C@H](n5nc(C6CC6)cc5Cc5ccccc5)C4)cc3C2=O)C(=O)N1 (stereo partly shown) [GS-741] ... 7.00 to 8.00
CN(C)c1ccccc1-c1cn([C@H]2C[C@H](CNc3ccc4c(c3)C(=O)N(C3CCC(=O)NC3=O)C4=O)C2)nc1C1CC1 (stereo partly shown) [GS-650] ... 7.00 to 8.00
O=C1CCC(N2Cc3cc(NC[C@H]4C[C@H](n5cc(-c6ncc(F)c7cccnc67)c(C6CC6)n5)C4)ccc3C2=O)C(=O)N1 (stereo partly shown) [GS-788] ... > 8.00
CC(C)n1cc2c(-c3cn([C@H]4C[C@H](CNc5ccc6c(c5)C(=O)N(C5CCC(=O)NC5=O)C6=O)C4)nc3C3CC3)ncc(F)c2n1 (stereo partly shown) [GS-743] ... > 8.00
O=C1CCC(N2C(=O)c3ccc(NC[C@H]4C[C@H](n5nc(C6CC6)c6cc(N7CCNCC7)ccc65)C4)cc3C2=O)C(=O)N1 (stereo partly shown) [GS-740] ... < 6.00

Here are 2 compounds. What values of pIC50 were reported for them?
1. Cc1cc(F)cnc1-c1cn([C@H]2C[C@H](CNc3ccc4c(c3)C(=O)N(C3CCC(=O)NC3=O)C4=O)C2)nc1C1CC1 (stereo partly shown) [GS-717]
2. Cc1nc(-c2cn(C3CC(F)(CNc4ccc5c(c4)C(=O)N(C4CCC(=O)NC4=O)C5=O)C3)nc2C2CC2)ccc1F (stereo not shown) [GS-723]

["> 8.00", "6.00 to 7.00"]

Below are some compounds; for each one, tell me its pIC50.
1. O=C1CCC(N2C(=O)c3ccc(NC[C@H]4C[C@H](n5nc(C6CC6)c6c(N7CCNCC7)cccc65)C4)cc3C2=O)C(=O)N1 (stereo partly shown) [GS-757]
2. O=C1CCC(N2C(=O)c3ccc(NC[C@H]4C[C@H](n5cc(-c6ncc(F)c7cccnc67)c(C6CC6)n5)C4)cc3C2=O)C(=O)N1 (stereo partly shown) [GS-697]
3. O=C1CCC(N2C(=O)c3ccc(NC[C@H]4C[C@H](n5cc(-c6cnc7ccc(N8CC(O)C8)cc7n6)c(C6CC6)n5)C4)cc3C2=O)C(=O)N1 (stereo partly shown) [GS-644]
4. Cn1cc2c(-c3cn([C@H]4C[C@H](CNc5ccc6c(c5)C(=O)N(C5CCC(=O)NC5=O)C6=O)C4)nc3C3CC3)ncc(F)c2n1 (stereo partly shown) [GS-790]
5. Cn1ncc2cncc(-c3cn([C@H]4C[C@H](CNc5ccc6c(c5)C(=O)N(C5CCC(=O)NC5=O)C6=O)C4)nc3C3CC3)c21 (stereo partly shown) [GS-781]

1: < 6.00; 2: > 8.00; 3: 7.00 to 8.00; 4: > 8.00; 5: 7.00 to 8.00

Form field pIC50, entry O=C1CCC(N2C(=O)c3ccc(NCC4CC(n5cc(-c6cnc7cc(C8CNC8)ccc7n6)c(C6CC6)n5)C4)cc3C2=O)C(=O)N1 (stereo not shown) [GS-746] : 6.00 to 7.00
